I'd be grateful if you could share measured IR/IGF-1R Comparison for these entries.
tested.system: T1, Insulin receptor prepared according to Bass et al., 1996: soluble human insulin receptor-immunoglobulin heavy … (human, UniProt P06213 28-956)
T1 construct: extracellular domain; Eu3+-labelled in TR-FRET; also called IR; sIR-Fc; not shown: immunoglobulin heavy chain constant domains that replace the transmembrane and i
assay.comment: phage ELISA, vs IGF-1R
Positions of bridges follow the written chain, without caps; N, C: chain ends. No end group written: not given here.
API: value field is a number in ratio; no unit string.

Query: Quick one: IR/IGF-1R Comparison for RAGSSDFHEDFYEWFVRQVSLSLKGK [H2CA-2-B9-IGFR] ?
Response: 0.2

Query: What about this binder? TLDGGSFEEQFYDWFVRQLSYRTNPD [H2CA-4-G11-IGFR]
Response: 0.3

Query: Moving on to the next binder: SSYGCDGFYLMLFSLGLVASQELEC (disulfide 5-25 (inferred)) [20C-3-A1-IGFR]
Response: 0.1
